Endpoint Name: melting point

Tell us which melting point value is on record for O=C1CC(Cc2ccc(F)cc2)C(=O)N1 (stereo unspecified)
107 to 109 °C

----------
Reported melting point by item:

These solved cases illustrate the format of a correct answer.
>  <Compound>
COCC(C)NC(=O)CC#N (stereo not drawn)

>  <Endpoint Name>
melting point

>  <Test Value>
40 to 44 °C

$$$$
>  <Compound>
CC(C)(C(=O)O)c1cccs1

>  <Endpoint Name>
melting point

>  <Test Value>
78 to 80 °C

$$$$
>  <Compound>
CC(C)(C)CNc1cccnc1

>  <Endpoint Name>
melting point

>  <Test Value>
62 to 64 °C

$$$$
>  <Compound>
C=CCn1c(=S)sc2c(=O)[nH]cnc21

>  <Endpoint Name>
melting point

>  <Test Value>
216 to 218 °C

$$$$
>  <Compound>
O=S(=O)(Cl)c1ccc(Br)c(C(F)(F)F)c1

>  <Endpoint Name>
melting point

>  <Test Value>
29 to 31 °C

$$$$

Report melting point for "CCCCn1c(N)c(NCc2ccccc2)c(=O)[nH]c1=O"
207 to 209 °C

----------
Endpoint Name: melting point

>  <Compound>
CC(=O)NC(=O)CCl

>  <melting point>
113 to 115 °C

$$$$
>  <Compound>
CCCCOc1ccc(C(=O)NC(C(=O)O)C(C)O)cc1 (stereo unspecified)

>  <melting point>
130 to 132 °C

$$$$
>  <Compound>
O=C(O)CCc1cnn(-c2ccccc2)c1

>  <melting point>
80 to 89 °C

$$$$
>  <Compound>
Oc1ccc(Oc2ccncc2)cc1

>  <melting point>
181 to 183 °C

$$$$
>  <Compound>
NNc1cccc(C(F)(F)F)n1

>  <melting point>
62 to 64 °C

$$$$

Now for another entry.
Answer with reported melting point of CC1(c2ccc(N)cc2)NC(=O)NC1=O (stereo unspecified)
187 to 189 °C

----------
Endpoint Name: melting point

Worked cases, answers included:
>  <Molecule>
O=C1NCC(=O)N2CCOCC12 (configuration not stated)

>  <melting point>
170 to 172 °C

$$$$
>  <Molecule>
CC(=O)Nc1ccc(OCC2CO2)cc1 (configuration not stated)

>  <melting point>
117 to 119 °C

$$$$
>  <Molecule>
ClCc1nnc(-c2ccccc2Cl)o1

>  <melting point>
91 to 93 °C

$$$$

Supply melting point value. Item: CC(C)C(C(=O)O)c1ccc(F)cc1 (configuration not stated)
59 to 61 °C

Quickly give me recorded melting point for "CC(C)(C(=O)O)c1ccccc1Cl"
111 to 113 °C

Fill in melting point for record "COc1cc(C(C)=O)ccc1OC(F)F"
65 to 67 °C

# return recorded melting point for input "Nc1ccc(S(=O)(=O)N2CCOCC2)cc1N"
169 to 171 °C

For the molecule "O=C(O)c1cnc(NC2CC2)s1" , give its measured melting point value.
217 to 219 °C

----------
// reported melting point for each item listed

>  <Molecule>
O=C(NCc1cn[nH]c1)OCc1ccccc1

>  <Test Value>
126 to 128 °C

$$$$
>  <Molecule>
CCn1c(SCC(=O)O)nnc1-c1cccs1

>  <Test Value>
157 to 159 °C

$$$$
>  <Molecule>
O=C1CC(Cc2ccc(C(=O)O)cc2)C(=O)N1 (stereo unspecified)

>  <Test Value>
243 to 245 °C

$$$$
>  <Molecule>
CC(Oc1ccccc1Cc1ccccc1)C(=O)O (stereo unspecified)

>  <Test Value>
91 to 93 °C

$$$$
>  <Molecule>
O=C(O)c1cccc(Cl)c1O

>  <Test Value>
173 to 175 °C

$$$$

Query melting point for "O=C(O)c1nnn(-c2ccc(Br)cc2)c1C1CC1"
176 to 178 °C

Identify measured melting point associated with "CN(C)C(=O)COc1ccc(N)cc1"
129 to 131 °C

Consider the molecule "N#C/C(=C/c1c[nH]nc1-c1cccc(Br)c1)C(=O)O" and give its recorded melting point.
258 to 260 °C

Please report the measured melting point for "Cc1nc(S(=O)(=O)NCC(=O)O)cn1C"
217 to 219 °C
